Target: NAD-dependent protein deacetylase sirtuin-1 (Homo sapiens, UniProt Q96EB6)
Sequence (Q96EB6 whole entry): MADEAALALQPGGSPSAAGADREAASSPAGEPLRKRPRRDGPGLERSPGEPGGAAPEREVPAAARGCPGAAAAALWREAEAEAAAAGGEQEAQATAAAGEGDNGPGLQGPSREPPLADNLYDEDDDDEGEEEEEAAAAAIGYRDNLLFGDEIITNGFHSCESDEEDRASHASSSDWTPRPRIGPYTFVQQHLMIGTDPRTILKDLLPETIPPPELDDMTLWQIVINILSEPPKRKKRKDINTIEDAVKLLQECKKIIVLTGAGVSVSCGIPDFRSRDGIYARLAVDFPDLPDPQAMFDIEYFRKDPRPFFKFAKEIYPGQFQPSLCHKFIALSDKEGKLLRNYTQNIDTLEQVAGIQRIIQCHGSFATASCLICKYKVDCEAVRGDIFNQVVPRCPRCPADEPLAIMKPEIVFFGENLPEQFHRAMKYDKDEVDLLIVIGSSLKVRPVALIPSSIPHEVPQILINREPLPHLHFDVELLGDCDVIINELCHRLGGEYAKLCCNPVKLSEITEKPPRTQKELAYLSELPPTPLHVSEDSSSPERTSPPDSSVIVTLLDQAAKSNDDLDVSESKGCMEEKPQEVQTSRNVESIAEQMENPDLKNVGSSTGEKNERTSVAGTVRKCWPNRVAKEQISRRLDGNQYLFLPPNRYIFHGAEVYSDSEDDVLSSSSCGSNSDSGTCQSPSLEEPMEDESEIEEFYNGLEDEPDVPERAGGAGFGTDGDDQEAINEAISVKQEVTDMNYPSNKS
Assay: Inhibition of human recombinant SIRT1 using fluor de Lys as substrate after 1 hr by fluorimeter analysis
pIC50: −log10 of the molar value.
Measured pIC50 values are reported for all entries that follow.

{"Smi": "CCCOc1ccc(Cn2c(-c3ccccc3)c(Cc3c(O)ccc4ccccc34)c(=O)[nH]c2=S)cc1", "Measured Value": "< 3.92"}
{"Smi": "CCOc1ccc(Cn2c(-c3ccccc3)c(Cc3c(OC)ccc4ccccc34)c(=O)[nH]c2=S)cc1", "Measured Value": "< 3.92"}

// compound CCOc1ccc(Cn2c(-c3ccccc3)c(Cc3c(O)ccc4ccccc34)c(=O)[nH]c2=S)cc1 , assay NAD-dependent protein deacetylase sirtuin-1 (Homo sapiens, UniProt Q96EB6), pIC50 value: < 3.92
